Target: Acetylcholinesterase (Rattus norvegicus, UniProt P37136)
Sequence (P37136 whole entry): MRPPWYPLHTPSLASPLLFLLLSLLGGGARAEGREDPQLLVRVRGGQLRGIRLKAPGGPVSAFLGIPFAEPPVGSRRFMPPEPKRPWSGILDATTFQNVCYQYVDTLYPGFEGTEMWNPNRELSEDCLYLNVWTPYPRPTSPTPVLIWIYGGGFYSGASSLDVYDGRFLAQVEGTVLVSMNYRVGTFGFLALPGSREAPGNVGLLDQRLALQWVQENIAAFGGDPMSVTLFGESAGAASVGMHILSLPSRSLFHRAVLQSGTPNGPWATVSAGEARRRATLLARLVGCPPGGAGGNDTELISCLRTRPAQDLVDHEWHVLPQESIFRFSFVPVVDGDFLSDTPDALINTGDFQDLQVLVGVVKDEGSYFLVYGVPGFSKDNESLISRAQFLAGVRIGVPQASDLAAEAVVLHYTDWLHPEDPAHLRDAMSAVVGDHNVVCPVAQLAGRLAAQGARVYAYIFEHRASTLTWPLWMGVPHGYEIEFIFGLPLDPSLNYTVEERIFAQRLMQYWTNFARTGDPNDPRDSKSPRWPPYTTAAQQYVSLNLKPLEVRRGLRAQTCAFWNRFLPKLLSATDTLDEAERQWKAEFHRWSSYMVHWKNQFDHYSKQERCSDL

- Smiles Data: "Fc1ccc2c(C3CCN(CCN4CCCC4)CC3)noc2c1"
  IC50: "5.3 µM"
- Smiles Data: "Fc1ccc2c(C3CCN(CCN4CCCCC4)CC3)noc2c1"
  IC50: "1.29 µM"
